Assay: Pharmacokinetic/toxicokinetic evaluation in rats
Type: in vivo
Details: rat, plasma, iv, 7.6 mg/kg, female, Dose 1
quantity.kind: AUC(0-inf) (ng·h/mL)
Write down the numeric answer in ng·h/mL and omit the unit.

Asked: Fill in: AUC(0-inf) of CN1CCCC1CCNC(=O)c1cn2c3c(c(N4CCC(c5cnccn5)C4)c(F)cc3c1=O)Oc1cc3ccccc3cc1-2 (stereo not shown) is ___
Given back: 861

---

Each item that follows carries a reported pIC50.
Target: c-Myc template DNA (c-myc quadruplex)
Test: Quadruplex binding / stop assay (Taq polymerase arrest, capillary electrophoresis)
Settings: read-out: S DATA; Table 1D, stop assay data
On this scale, pIC50 is minus log10 of a concentration expressed in M (mol/L).

INSERT INTO measurements (compound, experimental_system, quantity_kind, reading) VALUES
  ('CN1CCCC1CCNC(=O)c1cn2c3c(c(N[C@@H]4CN5CCC4CC5)c(F)cc3c1=O)Oc1cc3ccccc3cc1-2 (stereo partly shown) [compound 1497]', 'c-Myc template DNA (c-myc quadruplex)', 'pIC50', 6.30),
  ('O=C(NCCN1CCCC1)c1cn2c3c(c(N4CCN(Cc5ccco5)CC4)c(F)cc3c1=O)Oc1cc(Cl)ccc1-2 [compound 1829]', 'c-Myc template DNA (c-myc quadruplex)', 'pIC50', 5.00),
  ('CN1CCCC1CCNc1ccc2c(=O)c(C(=O)NCCN3CCCC3)cn3c2c1Oc1cc2ccccc2cc1-3 (stereo not shown) [compound 1522]', 'c-Myc template DNA (c-myc quadruplex)', 'pIC50', 6.12);

Asked: Fill in: pIC50 of O=C(NCCN1CCCC1)c1cn2c3c(c(N4CCNCC4)c(F)cc3c1=O)Oc1cc(Cl)ccc1-2 [compound 1820] is ___
Given back: 5.09

Asked: Fill in: pIC50 of CN1CCCC1CCN(CC[C@@H]1CCCN1C)C(=O)c1cn2c3c(c(N4CCC(c5cnccn5)C4)c(F)cc3c1=O)Oc1cc3ccccc3cc1-2 (stereo partly shown) [compound 1754] is ___
Given back: 5.30

Asked: Fill in: pIC50 of O=C(NCCN1CCCC1)c1cn2c3c(c(SCCc4ccccn4)c(F)cc3c1=O)Oc1cc3ccccc3cc1-2 [compound 1782] is ___
Given back: 5.48

Asked: Fill in: pIC50 of CCCCOCCCNc1c(F)cc2c(=O)c(C(=O)NCCC3CCCN3C)cn3c2c1Oc1cc2ccccc2cc1-3 (stereo not shown) [compound 1659] is ___
Given back: 5.76

Asked: Fill in: pIC50 of CCN(CC)CCCC(C)NC(=O)c1cn2c3c(c(N4CC5CCCNC5C4)c(F)cc3c1=O)Oc1cc3ccccc3cc1-2 (stereo not shown) [compound 1727] is ___
Given back: 6.12

Asked: Fill in: pIC50 of CN1CCCC1CCNC(=O)c1cn2c3c(c(NCc4ccccc4N4CCOCC4)c(F)cc3c1=O)Oc1cc3ccccc3cc1-2 (stereo not shown) [compound 1511] is ___
Given back: 5.76

Asked: Fill in: pIC50 of CN1CCCC1CCNC(=O)c1cn2c3c(c(F)c(F)cc3c1=O)Oc1cc3ccccc3cc1-2 (stereo not shown) [compound 1738] is ___
Given back: 5.65

Asked: Fill in: pIC50 of O=C(NCCN1CCOCC1)c1cn2c3c(c(N4CC5CCCNC5C4)c(F)cc3c1=O)Oc1cc3ccccc3cc1-2 (stereo not shown) [compound 1640] is ___
Given back: 6.60

---

Each item that follows carries a reported IC50.
Target: c-Myc template DNA (c-myc quadruplex)
Test: Quadruplex binding / stop assay (Taq polymerase arrest, capillary electrophoresis)
Settings: read-out: Stop Data c-Myc μM; concentration at which 50% of the DNA was arrested (arrested:full-length 1:1)
Write down the numeric answer in µM and omit the unit.

INSERT INTO assay_data (compound, units, reading) VALUES
  ('CN1CCN(CCCNc2c(F)cc3c(=O)c(C(=O)NCCN4CCOCC4)cn4c3c2Oc2cc3ccccc3cc2-4)CC1 [compound 60]', 'µM', 2.5);

Asked: IC50 of CN1CCCC1CCNC(=O)c1cn2c3c(c(N4CC[C@@H](N)C4)c(F)cc3c1=O)Oc1ccccc1-2 (some centres unmarked) [compound 111] on c-Myc template DNA (c-myc quadruplex)?
Given back: 1.75

Asked: IC50 of O=C(NCCN1CCCC1)c1cn2c3c(c(N4CCC(c5cnccn5)C4)ccc3c1=O)Oc1cc3ccccc3cc1-2 (centres unmarked) [compound 303] on c-Myc template DNA (c-myc quadruplex)?
Given back: 1.5

Asked: IC50 of O=C(NCCCN1CCOCC1)c1cn2c3cc4c(cc3oc3c(NCCCN5CCOCC5)c(F)cc(c1=O)c32)c(=O)c1ccccc14 [compound 203] on c-Myc template DNA (c-myc quadruplex)?
Given back: 1.75

Asked: IC50 of CN1CCCC1CCNC(=O)c1cn2c3c(c(N4CCC(N5CCCCC5)CC4)c(F)cc3c1=O)Oc1cc3ccccc3cc1-2 (centres unmarked) [compound 254] on c-Myc template DNA (c-myc quadruplex)?
Given back: 1.75

Asked: IC50 of CN(C)CCCCNC(=O)c1cn2c3c(c(NCCN4CCCC4)c(F)cc3c1=O)Oc1c-2ccc2ccccc12 [compound 473] on c-Myc template DNA (c-myc quadruplex)?
Given back: 0.62

---

Biological target: c-Myc template DNA (c-myc quadruplex)
Assay: Quadruplex binding / stop assay (Taq polymerase arrest, capillary electrophoresis)
Details: read-out: S DATA; Table 1D, stop assay data
quantity.kind: IC50 (µM)
Write down the numeric answer in µM and omit the unit.

INSERT INTO results (molecule, reading) VALUES
  ('CN1CCCC1CCNC(=O)c1cn2c3c(c(N[C@H]4CN5CCC4CC5)c(F)cc3c1=O)Oc1cc3ccccc3cc1-2 (some centres unmarked) [compound 1496]', 0.375),
  ('CN(C)CCCCNC(=O)c1cn2c3c(c(N4CCC(NC(=O)OC(C)(C)C)C4)ccc3c1=O)Oc1cc3ccccc3cc1-2 (centres unmarked) [compound 1539]', 0.75),
  ('CN1CCCC1CCNC(=O)c1cn2c3c(c(N4CCC(c5cnccn5)C4)c(F)cc3c1=O)Oc1ccc(Cl)cc1-2 (centres unmarked) [compound 1764]', 4.8),
  ('N#Cc1ccc2c(c1)-n1cc(C(=O)NCCN3CCCC3)c(=O)c3cc(F)c(N4CCC(c5cnccn5)C4)c(c31)O2 (centres unmarked) [compound 1778]', 2.9),
  ('CN1CCCC1CCNC(=O)c1cn2c3c(c(N4CCC(c5cnccn5)C4)c(F)cc3c1=O)Oc1ccc(C(N)=O)cc1-2 (centres unmarked) [compound 1773]', 6.1),
  ('CN(C)CCCCNC(=O)c1cn2c3c(c(NCCCCN(C)C)ccc3c1=O)Oc1cc3ccccc3cc1-2 [compound 1544]', 1.75),
  ('O=C(NCCN1CCCC1)c1cn2c3c(c(N4CCN(Cc5ccc[nH]5)CC4)c(F)cc3c1=O)Oc1cc(Cl)ccc1-2 [compound 1833]', 10),
  ('CN1CCC(NC(=O)c2cn3c4c(c(N5CCC(N)C5)c(F)cc4c2=O)Oc2cc4ccccc4cc2-3)CC1 (centres unmarked) [compound 1717]', 0.75),
  ('O=C(NCCN1CCCC1)c1cn2c3c(c(N4CCN(c5ncccn5)CC4)c(F)cc3c1=O)Oc1cc(Cl)ccc1-2 [compound 1813]', 5.1);

Asked: Fill in: IC50 of CCN(CC)CCCC(C)NC(=O)c1cn2c3c(c(N4CCC(c5cnccn5)C4)c(F)cc3c1=O)Oc1cc3ccccc3cc1-2 (centres unmarked) [compound 1719] is ___
Given back: 3

---

Molecular target: c-Myc template DNA (c-myc quadruplex)
Experiment: Quadruplex binding / stop assay (Taq polymerase arrest, capillary electrophoresis)
Details: read-out: S DATA; Table 1D, stop assay data
Each item that follows carries a reported IC50.
Write down the numeric answer in µM and omit the unit.

Asked: Fill in: IC50 of CCOC(=O)N1CCC(Nc2c(F)cc3c(=O)c(C(=O)NCCC4CCCN4C)cn4c3c2Oc2cc3ccccc3cc2-4)CC1 (stereo not drawn) is ___
Given back: 1.75

Asked: Fill in: IC50 of O=C(NCCN1CCCC1)c1cn2c3c(c(N4CCN(Cc5ccsc5)CC4)c(F)cc3c1=O)Oc1cc(Cl)ccc1-2 is ___
Given back: 9.8

Asked: Fill in: IC50 of Cn1cccc1CN1CCN(c2c(F)cc3c(=O)c(C(=O)NCCN4CCCC4)cn4c3c2Oc2cc(Cl)ccc2-4)CC1 is ___
Given back: 8.6

Asked: Fill in: IC50 of CN1CCCC1CCNC(=O)c1cn2c3c(c(N4CCC(NC(=O)OC(C)(C)C)C4)ccc3c1=O)Oc1cc3ccccc3cc1-2 (stereo not drawn) is ___
Given back: 0.75

Asked: Fill in: IC50 of CN1CCCC1CCNC(=O)c1cn2c3c(c(N4CCC(CCCC5CCNCC5)CC4)c(F)cc3c1=O)Oc1cc3ccccc3cc1-2 (stereo not drawn) is ___
Given back: 0.375
